# credit: patent US20260167972A1

Tested on: A549 cells
Assay: MTT cytotoxicity assay
Format: cell-based, human
Conditions: normalized to naïve control, ± SEM
Method: A549 cells were dosed with 100 µM of these derivatives for 4 h (FIG. 7A), 24 h (FIG. 7B), and 48 h (FIG. 7C). FIG. 7 reports cell viability as percent viability of A549 cells normalized to naïve control. […] Average values are reported with calculated standard error of the mean (SEM). […] MTT Cytotoxicity Assay: All cytotoxicity assays were performed in triplicate. […] Absorbance measurements (550 nm) were taken on a Tecan Infinite M1000 Pro plate reader. […]
Lab note: compare Cell Viability (%) 24 h Dosing with 70%, writing Condition met if less and Condition not met if equal or more.

## Task Cell Viability (%) 24 h Dosing under 70%? Item: NCCCNC(=O)[C@H](Cc1ccccc1)NC(=O)CC1c2ccccc2-c2ccccc21
## Result Condition met

## Task Cell Viability (%) 24 h Dosing under 70%? Item: NCCCNC(=O)[C@H](Cc1ccccc1)NC(=O)CCCc1ccc2ccc3cccc4ccc1c2c34
## Result Condition met

## Task Cell Viability (%) 24 h Dosing under 70%? Item: NCCCNC(=O)[C@H](Cc1ccccc1)NC(=O)C1CCCCC1
## Result Condition met
